- Tested on: Fibroblast
- assay.remarks: Multiplex assay against human fibroblast
- Assay type: toxicity, cell-based
- reported.conditions: 12 h, 10 µM, compound concentration 10 uM, replicate 1

{"columns": ["compound", "Population Healthy Nuclei (%)"],
 "data": [
  ["O=C(O)Cc1ccccc1Nc1c(Cl)cccc1Cl", 68],
  ["O=C1COc2nccc(-c3ccccc3F)c2CN1Cc1cc(C(F)(F)F)cc(C(F)(F)F)c1", 69],
  ["CCOc1c2c(c(OCC)c3ncccc13)CN(c1ccc(CS(=O)(=O)NC(=O)Cc3ccccc3OC)cc1C)C2=O", 63],
  ["O=C(NCCO)c1cccc(-c2cc(Nc3ccc(OC(F)(F)F)cc3)ncn2)c1", 59],
  ["CN1CCN(c2nc3cc(C(F)(F)F)ccc3n3cccc23)CC1.O=C(O)/C=C\\C(=O)O.O=C(O)/C=C\\C(=O)O", 59],
  ["Cc1nc2ccc(Oc3ccc(F)cc3)cc2c(=O)n1C[C@H]1CCCN(C(C)C)C1.Cl", 61],
  ["CC(=O)NCCc1c(Cc2ccccc2)[nH]c2ccccc12", 69],
  ["COc1c(C)cc(NC(=O)c2nn(Cc3ccc(F)cc3)c3c2CN(C(=O)c2ccc[nH]2)C[C@]3(C)C(N)=O)cc1C", 58],
  ["CN(C)c1ccnc2sc3c(=O)n(N4CCCCCC4)cnc3c12", 58],
  ["CCNC1(C(N)=O)CCN(c2ncnc3c2nc(-c2ccccc2Cl)n3-c2ccc(Cl)cc2)CC1", 64],
  ["c1cc(OCCCN2CCCCC2)ccc1CN1CCCCC1", 68],
  ["Cc1ccc(F)cc1C(=O)Nc1ccc(C(=O)N2Cc3cccn3Cc3ccccc32)c(Cl)c1", 58],
  ["Cc1ccccc1C(=O)Nc1ccc(C(=O)N2CCCC(N(C)C)c3ccccc32)cc1.Cl (stereo not drawn)", 50],
  ["COc1cc(C(=O)N(CCCc2ccccc2)Cc2ccc(CC(=O)O)cc2)cc(OC)c1C", 70],
  ["CSc1ccccc1N1CCN(CCCCCC(=O)NC2CCCc3ccccc32)CC1.Cl (stereo not drawn)", 57],
  ["COc1ccc2c(c1)C(C(=O)N(Cc1ccc(N(C)C)cc1)c1ccc(C(C)C)cc1)CCC2.Cl (stereo not drawn)", 69],
  ["O=C(NCC(=O)N1CC[C@H](N[C@H]2CC[C@@](O)(c3ccc(-c4ncccn4)cn3)CC2)C1)c1cccc(C(F)(F)F)c1", 69],
  ["CCCn1c(=O)c2[nH]c(C3CCCC3)nc2n(CCC)c1=O", 65]
]}
